Property: CC50; scope: individual compounds
Tested on: HepG2.117 cells
Test: Cell viability by CellTiter-Glo 2.0 (intracellular ATP) in HepG2.117 cells
Type: cell-based
Settings: CellTiter-Glo 2.0, 3 days incubation
Method: The following assay procedure describes the HBV antiviral assay, using HepG2.117 cells, which carry a stably integrated genotype D HBV genome under the control of a Tet-off promoter, and intracellular HBV DNA quantification as endpoint. Cell viability is assessed in parallel by measuring the intracellular ATP content using CellTiter-Glo 2.0 (Promega). […] Using the other plates, the cell viability is quantified by CellTiter-Glo 2.0 according to the manufacturer's manual. […]

CNC(=O)c1ccc(-n2c(NCc3ccccc3-c3ccccn3)nc3c(c2=O)C[C@@H](C)N(C(=O)c2ccc(Br)c(C(F)(F)F)c2)C3)c(Cl)c1 (single isomer, unassigned) [Compound 1b]
> 50 µM

Recorded result, CNC(=O)c1ccc(-n2c([C@@H]3CCCN3C(C)C)nc3c(c2=O)CC(C)N(C(=O)c2ccc(Br)c(C(F)(F)F)c2)C3)cc1 (single isomer, unassigned) [Compound 11b] , CC50: > 50 µM

====

test: Cell viability by CellTiter-Glo 2.0 (intracellular ATP) in HepG2.117 cells; format: cell-based; conditions: human, CellTiter-Glo 2.0, 3 days incubation
Property: CC50 at 3 days; scope: individual compounds

CNC(=O)c1ccc(-n2c([C@@H]3CCCN3C(C)C)nc3c(c2=O)CC(C)N(C(=O)c2ccc(Br)c(C(F)(F)F)c2)C3)cc1 (single isomer, unassigned) [Compound 11a]
> 50 µM
CNC(=O)c1ccc(-n2c(N(Cc3ccccc3)C3CC(F)(F)C3)nc3c(c2=O)C[C@@H](C)N(C(=O)c2ccc(Br)c(C(F)(F)F)c2)C3)cc1 [Compound 3]
> 50 µM
CNC(=O)c1ccc(-n2c(-n3ccc(C)n3)nc3c(c2=O)C[C@@H](C)N(C(=O)c2ccc(Br)c(C(F)(F)F)c2)C3)cc1 [Compound 19]
> 50 µM
CNC(=O)c1ccc(-n2c(N(Cc3ccccc3)C3CN(C)C3)nc3c(c2=O)C[C@@H](C)N(C(=O)c2ccc(Br)c(C(F)(F)F)c2)C3)cc1 [Compound 13]
27 µM
CNC(=O)c1ccc(-n2c(N(Cc3ccccc3)CC3CC3)nc3c(c2=O)C[C@@H](C)N(C(=O)c2ccc(Br)c(C(F)(F)F)c2)C3)cc1 [Compound 4]
> 50 µM
CNC(=O)c1ccc(-n2c(-n3cc(CC(C)C)cn3)nc3c(c2=O)C[C@@H](C)N(C(=O)c2ccc(Br)c(C(F)(F)F)c2)C3)cc1 [Compound 16]
> 50 µM

API: the following record is the query input.
Recorded result, CNC(=O)c1ccc(-n2c(C3CCN(C(=O)OC(C)(C)C)C3)nc3c(c2=O)CC(C)N(C(=O)c2ccc(Br)c(C(F)(F)F)c2)C3)cc1 (stereo not shown) [Compound 17] , CC50 at 3 days: 24.2 µM

====

test system: HBV; test: HBV-DNA antiviral assay using HepG2.117 cells (intracellular HBV DNA by qPCR); format: cell-based, HBV genotype D; conditions: HBV DNA inhibition, HepG2.117 cells, 3 days incubation; read-out: EC50
ENDPOINT: EC50

CNC(=O)c1ccc(-n2c([C@@H]3CCCN3C(C)C)nc3c(c2=O)CC(C)N(C(=O)c2ccc(Br)c(C(F)(F)F)c2)C3)cc1 (single isomer, unassigned) [Compound 11b]
0.5 to 5 µM

API: the following record is the query input.
Recorded result, CNC(=O)c1ccc(-n2c(NCc3ccccc3-c3ccccn3)nc3c(c2=O)C[C@@H](C)N(C(=O)c2ccc(Br)c(C(F)(F)F)c2)C3)c(Cl)c1 (single isomer, unassigned) [Compound 1b] , EC50: < 0.05 µM

Attribution: patent US11952374B2
